Data origin: patent US20190367619A1

Study Target: T1, cynomolgus galectin-10-His, WGS isoform (cynomolgus)
T1 construct: also called cynoGal10-WGS; not shown: His tag
T1 chain: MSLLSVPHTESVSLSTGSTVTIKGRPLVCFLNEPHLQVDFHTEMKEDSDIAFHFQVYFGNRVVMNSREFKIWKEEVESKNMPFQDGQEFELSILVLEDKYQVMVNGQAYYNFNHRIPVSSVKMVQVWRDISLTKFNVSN
Experimental Protocol: SPR Biacore (summary table)
One threshold, 0.002 s⁻¹, splits the recorded koff values: lower ones are Met, equal or higher ones are Not met.

Here are 2 binders together with their reported answers.
7B07 scFv-human Fc (Fc fusion, also called 007B07; not shown: CH2-CH3 constant domains of human IgG1 (pUPEX50 scFv-Fc fusion vector)) scFv: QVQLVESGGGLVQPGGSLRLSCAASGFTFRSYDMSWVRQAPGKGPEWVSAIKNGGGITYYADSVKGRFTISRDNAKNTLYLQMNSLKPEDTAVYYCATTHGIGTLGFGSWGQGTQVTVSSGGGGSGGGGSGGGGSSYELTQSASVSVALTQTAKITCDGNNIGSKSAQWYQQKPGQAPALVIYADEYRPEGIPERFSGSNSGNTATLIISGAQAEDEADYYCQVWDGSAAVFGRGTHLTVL
Not met
10D02 scFv-human Fc (Fc fusion, also called 010D02; not shown: CH2-CH3 constant domains of human IgG1 (pUPEX50 scFv-Fc fusion vector)) scFv: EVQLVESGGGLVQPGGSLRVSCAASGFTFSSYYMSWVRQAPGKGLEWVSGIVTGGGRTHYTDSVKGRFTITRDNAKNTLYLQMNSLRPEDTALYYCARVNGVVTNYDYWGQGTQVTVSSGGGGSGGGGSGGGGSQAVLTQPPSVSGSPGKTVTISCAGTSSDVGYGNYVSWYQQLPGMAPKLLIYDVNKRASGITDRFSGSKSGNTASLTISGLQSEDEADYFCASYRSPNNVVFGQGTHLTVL
Met

Problem: Dear colleague, could you confirm whether koff of 10B02 scFv-human Fc (Fc fusion, also called 010B02; not shown: CH2-CH3 constant domains of human IgG1 (pUPEX50 scFv-Fc fusion vector)) scFv: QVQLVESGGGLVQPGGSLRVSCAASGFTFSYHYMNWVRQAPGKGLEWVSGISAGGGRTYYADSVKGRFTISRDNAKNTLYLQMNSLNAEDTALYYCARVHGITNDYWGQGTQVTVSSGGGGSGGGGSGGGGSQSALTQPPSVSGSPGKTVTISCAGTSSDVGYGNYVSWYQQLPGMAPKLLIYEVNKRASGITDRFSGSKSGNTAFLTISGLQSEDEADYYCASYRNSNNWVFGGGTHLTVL falls below 0.002 s⁻¹? Thanks.
Result: Met

Problem: Dear colleague, could you confirm whether koff of 8H11 scFv-human Fc (Fc fusion, also called 008H11; not shown: CH2-CH3 constant domains of human IgG1 (pUPEX50 scFv-Fc fusion vector)) scFv: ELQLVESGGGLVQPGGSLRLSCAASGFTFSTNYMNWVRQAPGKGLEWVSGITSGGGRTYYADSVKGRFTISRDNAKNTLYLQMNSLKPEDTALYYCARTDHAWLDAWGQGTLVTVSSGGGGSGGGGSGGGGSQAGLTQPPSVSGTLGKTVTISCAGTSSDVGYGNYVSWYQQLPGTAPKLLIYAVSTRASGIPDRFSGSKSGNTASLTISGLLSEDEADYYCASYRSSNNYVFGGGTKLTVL falls below 0.002 s⁻¹? Thanks.
Result: Met

Problem: Dear colleague, could you confirm whether koff of 11F02 scFv-human Fc (Fc fusion, also called 011F02; not shown: CH2-CH3 constant domains of human IgG1 (pUPEX50 scFv-Fc fusion vector)) scFv: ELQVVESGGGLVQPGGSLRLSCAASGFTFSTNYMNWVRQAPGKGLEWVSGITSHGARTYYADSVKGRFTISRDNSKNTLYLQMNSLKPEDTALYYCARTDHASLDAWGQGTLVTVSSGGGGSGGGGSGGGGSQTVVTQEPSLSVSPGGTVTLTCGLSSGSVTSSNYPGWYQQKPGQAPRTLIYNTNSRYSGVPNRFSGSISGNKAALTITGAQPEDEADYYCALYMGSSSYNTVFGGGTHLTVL falls below 0.002 s⁻¹? Thanks.
Result: Met
